test.target: GAL4-PPARγ chimeric receptor (ligand-binding domain of human PPARγ) (Homo sapiens)
Construct: expressed in transfected cells; host or cells: COS-7 (monkey kidney)
Sequence (P37231 with tags, fused parts or gaps): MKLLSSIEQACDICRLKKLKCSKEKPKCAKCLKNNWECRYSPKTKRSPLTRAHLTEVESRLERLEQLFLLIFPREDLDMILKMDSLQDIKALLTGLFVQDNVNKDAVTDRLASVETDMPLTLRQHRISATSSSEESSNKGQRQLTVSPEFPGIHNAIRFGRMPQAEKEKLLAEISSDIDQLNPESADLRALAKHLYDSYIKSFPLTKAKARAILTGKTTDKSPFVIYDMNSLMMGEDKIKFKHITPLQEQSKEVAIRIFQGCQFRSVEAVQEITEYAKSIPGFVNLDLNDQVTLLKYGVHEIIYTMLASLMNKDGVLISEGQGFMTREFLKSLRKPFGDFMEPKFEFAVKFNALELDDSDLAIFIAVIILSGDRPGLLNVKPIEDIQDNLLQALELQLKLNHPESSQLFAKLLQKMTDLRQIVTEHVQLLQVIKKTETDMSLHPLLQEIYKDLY
test: Measurement of PPARγ activation effect/modulator activity (GAL4-PPARγ luciferase reporter assay in COS-7 cells)
Type: cell-based
assay.setup: COS-7 cells transfected with pM-PPARγ and pFR-Luc; concentration giving Emax/2
Hi there, I'd appreciate the recorded EC50 for every entry that follows.
Express it in pM; write the number only.

Reported EC50, molecule CCc1cnc(Oc2ccc3nc(COc4cccc(C(=O)O)c4)n(C)c3c2)c(C)c1 [Reference Example 11] : ____ 260000

Query: EC50; subject: Cc1cc(C)c(Oc2ccc3nc(COc4cccc(C(=O)O)c4)n(C)c3c2)nc1C [Reference Example 15] 120000

Would you mind telling me what EC50 value was observed for CCc1cc(C)cnc1Oc1ccc2nc(COc3cccc(C(=O)O)c3)n(C)c2c1 [Reference Example 12] ? 71000

Which EC50 is reported for this molecule? Cc1cc(F)cnc1Oc1ccc2nc(COc3cccc(C(=O)O)c3)n(C)c2c1 [Reference Example 8] 100000

Data request, read-out EC50, for Cc1cnc(Oc2ccc3nc(COc4cccc(C(=O)O)c4)n(C)c3c2)c(F)c1 [Reference Example 9] 43000

Endpoint output: EC50 of COc1c(C)cnc(Oc2ccc3nc(COc4cccc(C(=O)O)c4)n(C)c3c2)c1C [Reference Example 14] . Value? 69000
